Test system: MCF7
Test: Cytotoxicity in human MCF7 cells assessed as reduction in cell viability incubated for 48 hrs by SRB assay
Assay type: functional, cell-based
Assay context: MCF7, 48 h
Observable: IC50 (µM)
Field format: number, assumed µM, no unit text.

Q: // fetch IC50 for CCC(=O)O[C@H]1CC[C@@]2(C)[C@@H](CC[C@]3(C)[C@@H]2CC=C2[C@@H]4[C@@H](C)[C@H](C)CC[C@]4(C)CC[C@]23C)[C@@]1(C)C(=O)O ; system: MCF7
Result: 29

* * *

Test system: HeLa
Test: Cytotoxicity in human HeLa cells assessed as reduction in cell viability incubated for 48 hrs by MTT assay
Assay type: functional, cell-based
For each entry below, report its IC50 value.

Q: State its IC50 for this compound: C[C@@H]1CC[C@]2(C(=O)OCC(=O)N/N=C/c3ccc([N+](=O)[O-])cc3)CC[C@]3(C)C(=CC(=O)[C@@H]4[C@@]5(C)CC[C@H](O)[C@](C)(CO)[C@@H]5CC[C@]43C)[C@@H]2[C@]1(C)O
Result: 18.8 µM

Q: State its IC50 for this compound: C[C@@H]1CC[C@]2(C(=O)OCC(=O)N/N=C/c3ccc(Cl)cc3)CC[C@]3(C)C(=CC(=O)[C@@H]4[C@@]5(C)CC[C@H](O)[C@](C)(CO)[C@@H]5CC[C@]43C)[C@@H]2[C@]1(C)O
Result: > 100 µM

Q: State its IC50 for this compound: CC(=O)O/N=C1\CC[C@]2(C)[C@H]3CC=C4[C@@H]5[C@@H](C)[C@H](C)CC[C@]5(C(=O)Nc5ccccc5)CC[C@@]4(C)[C@]3(C)CC[C@H]2C1(C)C
Result: 9.3 µM

Q: State its IC50 for this compound: C[C@@H]1CC[C@]2(C(=O)O)CC[C@]3(C)C(=CC(=O)[C@@H]4[C@@]5(C)CC[C@H](O)[C@](C)(CO)[C@@H]5CC[C@]43C)[C@@H]2[C@]1(C)O
Result: 18.7 µM

Q: State its IC50 for this compound: COc1ccc(/C=N/NC(=O)COC(=O)[C@]23CC[C@@H](C)[C@@](C)(O)[C@H]2C2=CC(=O)[C@@H]4[C@@]5(C)CC[C@H](O)[C@](C)(CO)[C@@H]5CC[C@@]4(C)[C@]2(C)CC3)cc1
Result: 8.54 µM

Q: State its IC50 for this compound: CC(=O)O/N=C1\CC[C@]2(C)[C@H]3CC=C4[C@@H]5[C@@H](C)[C@H](C)CC[C@]5(C(=O)Nc5ccccc5C(=O)O)CC[C@@]4(C)[C@]3(C)CC[C@H]2C1(C)C
Result: 13.8 µM

* * *

For each entry below, report its IC50 value.
System: HeLa
Test: Cytotoxicity in human HeLa cells assessed as reduction in cell viability
Assay type: functional, cell-based

Q: State its IC50 for this compound: CC(=O)O[C@H]1CC[C@]2(C)[C@H]3CC=C4[C@@H]5[C@@H](C)[C@H](C)CC[C@]5(C(=O)N5CCOCC5)CC[C@@]4(C)[C@]3(C)CC[C@H]2C1(C)C
Result: 2200 nM

Q: State its IC50 for this compound: CCCC(=O)O[C@H]1CC[C@]2(C)[C@H]3CC=C4[C@@H]5[C@@H](C)[C@H](C)CC[C@]5(C(=O)N5CCOCC5)CC[C@@]4(C)[C@]3(C)CC[C@H]2C1(C)C
Result: > 10000 nM

* * *

Tested on: MCF7
Test: Cytotoxicity in human MCF7 cells assessed as reduction in cell viability incubated for 48 hrs by SRB assay
Format: functional, cell-based
Assay context: MCF7, 48 h
For each entry below, report its GI50 value.
Field format: number, assumed µM, no unit text.

Q: State its GI50 for this molecule: C[C@H]1[C@H](C)CC[C@]2(C(=O)OCCCn3cc(COC(=O)[C@]45CC[C@@H](C)[C@H](C)[C@@H]4C4=CC[C@@H]6[C@@]7(C)CC[C@H](O)C(C)(C)[C@@H]7CC[C@]6(C)[C@]4(C)CC5)cn3)CC[C@]3(C)C(=CC[C@@H]4[C@@]5(C)CC[C@H](O)C(C)(C)[C@@H]5CC[C@]43C)[C@H]12
Result: 12.7

Q: State its GI50 for this molecule: C[C@H]1[C@H](C)CC[C@]2(C(=O)O)CC[C@]3(C)C(=CC[C@@H]4[C@@]5(C)C[C@@H](O)[C@H](O)[C@@](C)(CO)[C@@H]5CC[C@]43C)[C@H]12
Result: 19.1

Q: State its GI50 for this molecule: C[C@H]1[C@H](C)CC[C@]2(C(=O)OCCCn3cc(COC(=O)[C@]45CC[C@@H](C)[C@H](C)[C@@H]4C4=CC[C@@H]6[C@@]7(C)C[C@H](O)[C@H](O)[C@](C)(CO)[C@@H]7CC[C@]6(C)[C@]4(C)CC5)cn3)CC[C@]3(C)C(=CC[C@@H]4[C@@]5(C)CC[C@H](O)C(C)(C)[C@@H]5CC[C@]43C)[C@H]12
Result: 12.8

Q: State its GI50 for this molecule: C[C@H]1[C@H](C)CC[C@]2(C(=O)OCCCn3cc(COC(=O)[C@]45CC[C@@H](C)[C@H](C)[C@@H]4C4=CC[C@@H]6[C@@]7(C)CC[C@H](O)[C@](C)(CO)[C@@H]7CC[C@]6(C)[C@]4(C)CC5)cn3)CC[C@]3(C)C(=CC[C@@H]4[C@@]5(C)CC[C@H](O)C(C)(C)[C@@H]5CC[C@]43C)[C@H]12
Result: 12.1

Q: State its GI50 for this molecule: C=C(C)[C@@H]1CC[C@]2(C(=O)OCc3cnn(CCCOC(=O)[C@]45CC[C@@H](C)[C@H](C)[C@H]4C4=CC[C@@H]6[C@@]7(C)CC[C@H](O)C(C)(C)[C@@H]7CC[C@@]6(C)[C@]4(C)CC5)c3)CC[C@]3(C)[C@H](CC[C@@H]4[C@@]5(C)CC[C@H](O)C(C)(C)[C@@H]5CC[C@]43C)[C@@H]12
Result: 14.4

Q: State its GI50 for this molecule: C=C(C)[C@@H]1CC[C@]2(C(=O)O)CC[C@]3(C)[C@H](CC[C@@H]4[C@@]5(C)CC[C@H](O)C(C)(C)[C@@H]5CC[C@]43C)[C@@H]12
Result: 11.3

Q: State its GI50 for this molecule: CC1(C)CC[C@]2(C(=O)O)CC[C@]3(C)C(=CC[C@@H]4[C@@]5(C)CC[C@H](O)C(C)(C)[C@@H]5CC[C@]43C)[C@@H]2C1
Result: 10.3

* * *

Test: Cytotoxicity in human SPCA2 cells assessed as reduction in cell viability incubated for 48 hrs by MTT assay
Format: functional, cell-based
Assay context: SPCA2, 48 h
Observable: IC50 (µM)
Field format: number, assumed µM, no unit text.

Q: State its IC50 for this compound: C[C@H]1[C@H](C)CC[C@]2(C(=O)O)CC[C@]3(C)C(=CC[C@@H]4[C@@]5(C)C[C@@H](O)[C@H](O)[C@@](C)(CO)[C@@H]5CC[C@]43C)[C@H]12
Result: 39.4

Q: State its IC50 for this compound: CCOP(=O)(OCC)C(NC(=O)[C@]12CC[C@@H](C)[C@H](C)[C@H]1C1=CC[C@@H]3[C@@]4(C)C[C@@H](OC(C)=O)[C@H](OC(C)=O)[C@@](C)(COC(C)=O)[C@@H]4CC[C@@]3(C)[C@]1(C)CC2)c1ccccc1Cl (stereo partly specified)
Result: 15

Q: State its IC50 for this compound: CCOP(=O)(OCC)C(NC(=O)[C@]12CC[C@@H](C)[C@H](C)[C@H]1C1=CC[C@@H]3[C@@]4(C)C[C@@H](OC(C)=O)[C@H](OC(C)=O)[C@@](C)(COC(C)=O)[C@@H]4CC[C@@]3(C)[C@]1(C)CC2)c1cccc2ccccc12 (stereo partly specified)
Result: 46.1

Q: State its IC50 for this compound: CCOP(=O)(OCC)C(NC(=O)[C@]12CC[C@@H](C)[C@H](C)[C@H]1C1=CC[C@@H]3[C@@]4(C)C[C@@H](OC(C)=O)[C@H](OC(C)=O)[C@@](C)(COC(C)=O)[C@@H]4CC[C@@]3(C)[C@]1(C)CC2)c1ccc2ccccc2c1 (stereo partly specified)
Result: 48.7

Q: State its IC50 for this compound: CCOP(=O)(OCC)C(NC(=O)[C@]12CC[C@@H](C)[C@H](C)[C@H]1C1=CC[C@@H]3[C@@]4(C)C[C@@H](OC(C)=O)[C@H](OC(C)=O)[C@@](C)(COC(C)=O)[C@@H]4CC[C@@]3(C)[C@]1(C)CC2)c1ccc(Cl)cc1 (stereo partly specified)
Result: 16.1

Q: State its IC50 for this compound: O=c1[nH]cc(F)c(=O)[nH]1
Result: 44.3

* * *

Test system: HepG2
Test: Cytotoxicity in human HepG2 cells assessed as reduction in cell viability incubated for 72 hrs by MTT assay
Format: functional, cell-based
Assay context: HepG2, 72 h
Observable: pIC50
FYI, pIC50 means -log10 of a concentration in mol per litre.

Q: State its pIC50 for this compound: CC(=O)O[C@@H]1C[C@]2(C)[C@H]3CC=C4[C@@H]5CC(C)(C)CC[C@]5(C(=O)NCCCCCCCCCCC(=O)O)CC[C@@]4(C)[C@]3(C)CC[C@H]2C(C)(C)[C@H]1OC(C)=O
Result: 4.85

Q: State its pIC50 for this compound: Cc1nc(C)c(COC(=O)[C@]23CCC(C)(C)C[C@H]2C2=CC[C@@H]4[C@@]5(C)CC[C@H](OC(=O)[C@@H](N)CO)C(C)(C)[C@@H]5CC[C@@]4(C)[C@]2(C)CC3)nc1C
Result: 5.32

Q: State its pIC50 for this compound: Cc1nc(C)c(COC(=O)[C@]23CCC(C)(C)C[C@H]2C2=CC[C@@H]4[C@@]5(C)CC[C@H](OC(=O)[C@H](C)N)C(C)(C)[C@@H]5CC[C@@]4(C)[C@]2(C)CC3)nc1C
Result: 5.63

Q: State its pIC50 for this compound: Cc1nc(C)c(COC(=O)[C@]23CCC(C)(C)C[C@H]2C2=CC[C@@H]4[C@@]5(C)CC[C@H](OC(=O)[C@@H]6CCCN6)C(C)(C)[C@@H]5CC[C@@]4(C)[C@]2(C)CC3)nc1C
Result: 5.62

Q: State its pIC50 for this compound: Cc1ccc(/C=C/C(=O)O[C@H]2CC[C@]3(C)[C@H]4C(=O)C=C5[C@H]6C[C@@](C)(C(=O)O)CC[C@]6(C)CC[C@@]5(C)[C@]4(C)CC[C@H]3C2(C)C)cc1
Result: 4.66

Q: State its pIC50 for this compound: CC1(C)[C@@H](OC(=O)/C=C/c2ccccc2)CC[C@]2(C)[C@H]3C(=O)C=C4[C@H]5C[C@@](C)(C(=O)O)CC[C@]5(C)CC[C@@]4(C)[C@]3(C)CC[C@@H]12
Result: 4.61

Q: State its pIC50 for this compound: CCCC(=O)O[C@@H]1C[C@]2(C)[C@H]3CC=C4[C@@H]5CC(C)(C)CC[C@]5(C(=O)NCCCCCCCCCCC(=O)O)CC[C@@]4(C)[C@]3(C)CC[C@H]2C(C)(C)[C@H]1OC(=O)CCC
Result: 4.56

Q: State its pIC50 for this compound: COc1ccccc1/C=C/C(=O)O[C@H]1CC[C@]2(C)[C@H]3C(=O)C=C4[C@H]5C[C@@](C)(C(=O)O)CC[C@]5(C)CC[C@@]4(C)[C@]3(C)CC[C@H]2C1(C)C
Result: 4.49

Q: State its pIC50 for this compound: COc1ccc(/C=C/C(=O)O[C@H]2CC[C@]3(C)[C@H]4C(=O)C=C5[C@H]6C[C@@](C)(C(=O)O)CC[C@]6(C)CC[C@@]5(C)[C@]4(C)CC[C@H]3C2(C)C)c(OC)c1OC
Result: 4.67

Q: State its pIC50 for this compound: COc1cc(/C=C/C(=O)O[C@H]2CC[C@]3(C)[C@H]4C(=O)C=C5[C@H]6C[C@@](C)(C(=O)O)CC[C@]6(C)CC[C@@]5(C)[C@]4(C)CC[C@H]3C2(C)C)cc(OC)c1OC
Result: 4.66
